assay summary: In vivo pharmacokinetics, lung tissue homogenate (UPLC-MS/MS)
Design: species or system rat
condition: male, Sprague-Dawley (SD); rat lung tissue homogenate; tail intravenous injection BA/AH-DPI saline solution 9 mg/kg; 120 min; read-out: Drug concentration of BA in lung tissue
property: concentration at 120 min (ng/mL)
Report as a plain number; the unit ng/mL is understood.

Entry O=C(O)[C@H]1O[C@@H](Oc2cc3oc(-c4ccccc4)cc(=O)c3c(O)c2O)[C@H](O)[C@@H](O)[C@@H]1O — recorded concentration at 120 min = 12.9

====

assay summary: In vivo pharmacokinetics, plasma (UPLC-MS/MS)
Design: species or system rat
condition: male, SD, inhaled; rat plasma; pulmonary administration BA/AH-DPI 9 mg/kg; 60 min; read-out: Blood concentration of AH
Where a name gives a salt, the structure may show the parent alone.
property: concentration at 60 min (ng/mL)
Report as a plain number; the unit ng/mL is understood.

Entry Nc1c(Br)cc(Br)cc1CNC1CCC(O)CC1 (stereo not shown) [AH, ambroxol hydrochloride] — recorded concentration at 60 min = 124

====

assay summary: In vivo pharmacokinetics, lung tissue homogenate (UPLC-MS/MS)
Set-up: species or system rat
condition: male, Sprague-Dawley (SD), lung tissue (homogenate supernatant); BA in rat lung tissue; tail intravenous injection group, 9 mg/kg; read-out: HLz (biological half-life) (converted)
property: half-life (h)
Report as a plain number; the unit h is understood.

Entry O=C(O)[C@H]1O[C@@H](Oc2cc3oc(-c4ccccc4)cc(=O)c3c(O)c2O)[C@H](O)[C@@H](O)[C@@H]1O — recorded half-life = 1.69

====

assay summary: In vivo pharmacokinetics, lung tissue homogenate (UPLC-MS/MS)
Design: species or system rat
condition: male, Sprague-Dawley (SD), lung tissue (homogenate supernatant); AH in rat lung tissue; tail intravenous injection group, 9 mg/kg; read-out: MRTlast (mean retention time)
Where a name gives a salt, the structure may show the parent alone.
property: MRT last (h)
Report as a plain number; the unit h is understood.

Entry Nc1c(Br)cc(Br)cc1CNC1CCC(O)CC1 (stereo not shown) [AH, ambroxol hydrochloride] — recorded MRT last = 1.01

====

assay summary: In vivo pharmacokinetics, plasma (UPLC-MS/MS)
Design: species or system rat
condition: male, Sprague-Dawley (SD); rat plasma; tail intravenous injection BA/AH-DPI saline solution 9 mg/kg; 4 min; read-out: Blood concentration of BA
property: concentration at 4 min (ng/mL)
Report as a plain number; the unit ng/mL is understood.

Entry O=C(O)[C@H]1O[C@@H](Oc2cc3oc(-c4ccccc4)cc(=O)c3c(O)c2O)[C@H](O)[C@@H](O)[C@@H]1O — recorded concentration at 4 min = 3060

====

assay summary: In vivo pharmacokinetics, lung tissue homogenate (UPLC-MS/MS)
Design: species or system rat
condition: male, Sprague-Dawley (SD), inhaled; rat lung tissue homogenate; pulmonary administration BA/AH-DPI 9 mg/kg; 360 min; read-out: Drug concentration of AH in lung tissue
Counter-ions that a name gives are not always drawn.
property: concentration at 360 min
Just the number plus its unit, please.

Entry Nc1c(Br)cc(Br)cc1CNC1CCC(O)CC1 (stereo not shown) [AH, ambroxol hydrochloride] — recorded concentration at 360 min = 66.2 ng/mL

====

assay summary: In vivo pharmacokinetics, lung tissue homogenate (UPLC-MS/MS)
Set-up: species or system rat
condition: male, Sprague-Dawley (SD), lung tissue (homogenate supernatant), inhaled or intranasal; BA in rat lung tissue; pulmonary administration group, BA/AH-DPI 9 mg/kg; read-out: MRTlast (mean retention time)
property: MRT last (min)
Report as a plain number; the unit min is understood.

Entry O=C(O)[C@H]1O[C@@H](Oc2cc3oc(-c4ccccc4)cc(=O)c3c(O)c2O)[C@H](O)[C@@H](O)[C@@H]1O — recorded MRT last = 57
